Reference source: ChEMBL document CHEMBL1201862

System: SK-MEL-2
Assay: NCI tumour cell line growth inhibition, 48 h
Calls of active or inactive are those of the source. Rule as the data show it: active = GI50 up to about 1.1 µM and inactive = higher.
Listed compounds paired with reported GI50

Compound	GI50
CC1C/C(=C\c2ccc(O)c(O)c2)C(=O)/C(=C/c2ccc(O)c(O)c2)C1 (stereo not given)	6.97 µM (inactive)
Cn1nc(C(=O)N2CC(CCl)c3c2cc(N)c2ccccc32)cc1NC(=O)Nc1cc(C(=O)N2CC(CCl)c3c2cc(N)c2ccccc32)nn1C (stereo not given)	0.13 µM (active)
CC(=O)NC1C(OCc2ccccc2)OC(CO)C(O)C1OC(C)C(=O)NC(C)C(=O)N[C@@H](CCC(=O)OCCCNC1c2ccccc2Nc2cccc([N+](=O)[O-])c21)C(N)=O (stereo not given in full)	< 0.01 µM (active)
O=C1NC(=O)/C(=C/c2ccc(S(=O)(=O)N/N=C/c3ccccc3)cc2)N1	> 100 µM (inactive)
O=S(=O)(OI(O)CC(F)(F)F)C(F)(F)F	> 100 µM (inactive)
COc1ccccc1NCC(=O)Nn1c(C)nc2ccc(S(=O)(=O)Nc3ccccc3OC)cc2c1=O	> 100 µM (inactive)
COC(=O)c1c(CC#N)cccc1CC#N	> 100 µM (inactive)
O=C(CC(c1ccccc1)C1C(=O)NC(=S)NC1=O)c1ccc([N+](=O)[O-])cc1 (stereo not given)	> 100 µM (inactive)
CC1(C)c2ccccc2C(C)(C)C(C(=O)Nc2ccccc2)C1C(=O)O (stereo not given)	> 100 µM (inactive)
Cc1ccc(C2=C(c3ccccc3)C(Br)(c3ccc(C)cc3)C(c3ccccc3)=C2c2ccc(C)cc2)cc1	> 100 µM (inactive)
